Origin of the recorded values: ChEMBL document CHEMBL1268934

- study-system: GABA-A receptor; alpha-5/beta-3/gamma-2 (Homo sapiens, UniProt P18507+P28472+P31644)
- Sequence (P18507 whole entry): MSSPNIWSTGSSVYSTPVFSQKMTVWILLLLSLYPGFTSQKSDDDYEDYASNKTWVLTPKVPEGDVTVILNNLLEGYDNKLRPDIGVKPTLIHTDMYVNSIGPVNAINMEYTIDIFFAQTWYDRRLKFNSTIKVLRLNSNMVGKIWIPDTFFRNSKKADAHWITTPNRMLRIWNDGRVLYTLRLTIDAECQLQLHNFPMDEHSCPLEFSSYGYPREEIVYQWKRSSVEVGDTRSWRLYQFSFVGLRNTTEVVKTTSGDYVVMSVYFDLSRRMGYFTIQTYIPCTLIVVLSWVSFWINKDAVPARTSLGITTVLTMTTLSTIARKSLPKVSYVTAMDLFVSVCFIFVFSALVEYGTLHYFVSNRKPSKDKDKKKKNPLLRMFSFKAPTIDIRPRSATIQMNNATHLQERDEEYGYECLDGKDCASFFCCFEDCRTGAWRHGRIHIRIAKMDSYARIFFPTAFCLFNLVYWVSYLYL
- Sequence (P28472 whole entry): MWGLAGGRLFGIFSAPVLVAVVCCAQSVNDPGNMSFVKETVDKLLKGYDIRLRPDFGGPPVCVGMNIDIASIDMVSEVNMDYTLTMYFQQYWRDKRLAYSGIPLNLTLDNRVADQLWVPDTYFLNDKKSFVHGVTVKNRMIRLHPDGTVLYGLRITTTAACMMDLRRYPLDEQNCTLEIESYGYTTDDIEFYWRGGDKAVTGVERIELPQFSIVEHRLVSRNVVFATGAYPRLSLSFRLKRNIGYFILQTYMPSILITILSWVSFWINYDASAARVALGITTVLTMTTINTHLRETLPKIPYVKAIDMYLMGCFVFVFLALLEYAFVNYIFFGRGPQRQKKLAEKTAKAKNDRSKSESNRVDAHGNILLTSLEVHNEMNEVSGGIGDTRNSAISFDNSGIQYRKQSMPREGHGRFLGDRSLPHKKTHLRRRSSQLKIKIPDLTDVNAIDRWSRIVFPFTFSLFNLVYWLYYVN
- Sequence (P31644 whole entry): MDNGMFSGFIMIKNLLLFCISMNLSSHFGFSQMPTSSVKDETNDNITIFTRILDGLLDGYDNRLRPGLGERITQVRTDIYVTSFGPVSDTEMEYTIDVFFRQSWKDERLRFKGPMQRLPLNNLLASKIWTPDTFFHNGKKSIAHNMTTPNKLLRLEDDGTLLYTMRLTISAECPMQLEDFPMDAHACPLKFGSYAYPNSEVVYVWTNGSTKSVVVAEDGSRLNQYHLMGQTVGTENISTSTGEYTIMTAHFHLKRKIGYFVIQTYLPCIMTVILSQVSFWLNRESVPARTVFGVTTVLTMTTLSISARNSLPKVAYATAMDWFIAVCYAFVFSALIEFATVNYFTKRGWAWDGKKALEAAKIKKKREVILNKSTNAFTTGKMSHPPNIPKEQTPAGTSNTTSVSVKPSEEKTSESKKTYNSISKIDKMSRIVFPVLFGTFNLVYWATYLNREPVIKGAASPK
- assay-comment: Displacement of [3H]flunitrazepam from human recombinant GABAA alpha-5-beta-3-gamma-2 receptor expressed in HEK cells by liquid scintillation counting
quantity-kind: pKi
Numbers only, as −log10 of the molar value.

Go through the list and state pKi for each entry.
1. O=C(OCC(F)(F)F)c1cc2c(cn1)[nH]c1ccc(-c3ccccc3)cc12
2. O=C(OCC(F)(F)F)c1cc2c(cn1)[nH]c1ccc(-c3cccs3)cc12
3. CCCC(=O)c1cc2c(cn1)[nH]c1ccc(F)cc12
4. O=C(OC(C(F)(F)F)C(F)(F)F)c1cc2c(cn1)[nH]c1ccc(I)cc12

OUTPUT:
1: 6.52; 2: 6.35; 3: 6.60; 4: 6.17

Looking up "CC(C)(C)OC(=O)c1cc2c3cc(I)ccc3n(C(=O)OC(C)(C)C)c2cn1" , I see its pKi listed as 5.73
